# target_entity: Bombesin receptor subtype-3 (Homo sapiens, UniProt P32247)
value_kind: Ki (µM)
I only need the number, in µM, no unit after it.

Ki for CSCC[C@H](NC(=O)[C@H](Cc1ccccc1)NC(=O)[C@H](CO)NC(=O)CNC(=O)[C@@H](NC(=O)[C@H](C)NC(=O)[C@H](Cc1c[nH]c2ccccc12)NC(=O)[C@H](CC(C)C)NC(=O)[C@@H]1CCC(=O)N1)C(C)C)C(N)=O is 2.1

* * *

# target_entity: Bombesin receptor subtype-3 (Homo sapiens, UniProt P32247)
# Sequence (P32247 whole entry): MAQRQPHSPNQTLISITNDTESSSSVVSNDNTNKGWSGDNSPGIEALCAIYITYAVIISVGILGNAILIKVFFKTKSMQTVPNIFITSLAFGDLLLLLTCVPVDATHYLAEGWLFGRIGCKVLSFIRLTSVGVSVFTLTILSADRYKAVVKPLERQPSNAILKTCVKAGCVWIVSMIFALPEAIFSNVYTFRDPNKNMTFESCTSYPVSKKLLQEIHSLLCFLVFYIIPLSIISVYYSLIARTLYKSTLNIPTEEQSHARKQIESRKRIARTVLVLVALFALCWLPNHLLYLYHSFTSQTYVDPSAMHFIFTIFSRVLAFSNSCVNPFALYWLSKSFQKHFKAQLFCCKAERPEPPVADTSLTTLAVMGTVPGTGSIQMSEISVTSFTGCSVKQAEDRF
Where a SMILES comes first, the peptide text is derived from it. Bridges are numbered along the chain shown (N, C = ends). [ ]: non-standard residue; d: D form. 2Nal = N[C@@H](Cc1ccc2ccccc2c1)C(=O)O; d2Nal = N[C@H](Cc1ccc2ccccc2c1)C(=O)O; pGlu = O=C1CC[C@@H](C(=O)O)N1
Please respond with reported Ki for every item in the list.
I only need the number, in µM, no unit after it.

Ki for CSCC[C@H](NC(=O)[C@H](CC(C)C)NC(=O)[C@H](CO)NC(=O)CNC(=O)[C@@H](NC(=O)[C@H](C)NC(=O)[C@H](Cc1c[nH]c2ccccc12)NC(=O)[C@H](CC(C)C)NC(=O)[C@@H]1CCC(=O)N1)C(C)C)C(N)=O [Leu8-phyllolitorin] ([pGlu]LWAVGSLM-NH2) is 5.4

Ki for CC(C)[C@@H]1NC(=O)[C@H](CCCCN)NC(=O)[C@@H](Cc2c[nH]c3ccccc23)NC(=O)[C@H](Cc2ccc(O)cc2)NC(=O)[C@H](NC(=O)[C@H](N)Cc2ccc3ccccc3c2)CSSC[C@@H](C(=O)N[C@@H](Cc2ccc3ccccc3c2)C(N)=O)NC1=O (H-[d2Nal][dC]Y[dW]KVC[2Nal]-NH2; disulfide 2-7) is 2.8

Ki for CCCCNC(=O)[C@H](CC(C)C)NC(=O)[C@H](Cc1cnc[nH]1)NC(=O)[C@@H](C)NC(=O)[C@@H](NC(=O)[C@H](C)NC(=O)[C@H](Cc1c[nH]c2ccccc12)NC(=O)[C@H](CCC(N)=O)NC(=O)[C@H](N)Cc1ccc(O)cc1)C(C)C [DTyr6,DAla11-Bn(6-13)butylamide] is 5.3

Ki for COC(=O)[C@H](CC(C)C)NC(=O)[C@H](Cc1cnc[nH]1)NC(=O)CNC(=O)[C@@H](NC(=O)[C@H](C)NC(=O)[C@H](Cc1c[nH]c2ccccc12)NC(=O)[C@H](CCC(N)=O)NC(=O)[C@H](N)Cc1ccccc1)C(C)C [DPhe6-Bn(6-13)methylester] is 5.3

Ki for CCCCCCNC(=O)[C@H](CC(C)C)NC(=O)[C@H](Cc1cnc[nH]1)NC(=O)CNC(=O)[C@@H](NC(=O)[C@H](C)NC(=O)[C@H](Cc1c[nH]c2ccccc12)NC(=O)[C@H](CCC(N)=O)NC(=O)[C@H](N)Cc1ccccc1)C(C)C [DPhe6-Bn(6-13)hexylamide] is 3.2

Reference source: BindingDB's records for doi:10.1021/bi990204w
